Tested on: MCF7 cells (breast cancer stem cell, mammosphere)
assay-notes: Measurement of effect of inhibiting mammosphere formation
Type: cell-based, human
details: 5 μM, MCF7, 8 days, size 50 um or more
Where a name gives a salt, the structure may show the parent alone.
Rule: Number of Mammospheres under 80 gives class 0, otherwise class 1.

Known results for compounds:
Cl.N=C(NC(=N)N1CCCC1)Nc1ccc(C(F)(F)F)cc1; class 1
[H]/N=C(/N)N/C(=N/[H])NCCc1ccccc1 [Phenformin hydrochloride, reference compound]; class 1
Cl.N=C(NC(=N)N1CCCCC1)Nc1cccc(Cl)c1; class 0
Cl.N=C(NC(=N)N1CCCCC1)Nc1ccc(C(F)(F)F)cc1; class 0

Now, please, on to the next compound.
Does the compound Cl.N=C(NC(=N)N1CCCCCC1)Nc1cccc(Cl)c1 have recorded Number of Mammospheres that is 80 or more?
class 0

====

Counter-ions that a name gives are not always drawn.
measurement-label: melting point

Cl.N=C(NC(=N)N1CCCCC1)Nc1cccc(CO)c1 [Example 12]; 225 to 227 °C
CC(=O)Nc1ccc(NC(=N)NC(=N)N2CCCCC2)cc1.Cl [Example 38]; 258 to 260 °C
Cl.N=C(NC(=N)N1CCCCC1)Nc1ccc(F)c(C(F)(F)F)c1 [Example 46]; 269 to 270 °C
N=C(NC(=N)N1CCCC1)Nc1ccc(C(F)(F)F)c(F)c1 (as salt: acetate) [Example 74]; 204 to 205 °C
Cl.N=C(NC(=N)N1CCCCCC1)Nc1cccc(Cl)c1 [Example 21]; 213 to 215 °C

Give recorded melting point. Cl.N=C(NC(=N)N1CCCCC1)Nc1cccc(O)c1 [Example 11]
210 to 212 °C

Give recorded melting point. N=C(NC(=N)N1CCCC1)Nc1ccc(OC(F)(F)F)c(F)c1 (as salt: acetate) [Example 76]
203 to 205 °C

Give recorded melting point. Cl.N=C(NC(=N)N1CCCCC1)Nc1ccc(Cl)c(OC(F)(F)F)c1 [Example 51]
251 to 252 °C

Give recorded melting point. Cl.N=C(NC(=N)N1CCCCC1)Nc1ccc(F)c(OC(F)(F)F)c1 [Example 50]
260 to 261 °C

====

Some compounds, each annotated with its measured GI50.
System: HCT116 cells
assay-notes: Measurement of effect of inhibiting cancer cell proliferation (MTT)
Type: cell-based, human
details: Homo sapiens, HCT-116, 48 h

Cl.N=C(NC(=N)N1CCCC1)Nc1cccc(C(F)(F)F)c1 [Example 23, hydrochloride]; 38.9 µM

Give recorded GI50. Cl.N=C(NC(=N)N1CCCCC1)Nc1cc(Cl)cc(OC(F)(F)F)c1 [Example 65, hydrochloride]
3.6 µM

Give recorded GI50. Cl.N=C(NC(=N)N1CCCCC1)Nc1ccc(F)cc1F [Example 58, hydrochloride]
> 100 µM

Give recorded GI50. Cl.N=C(NC(=N)N1CCCCC1)Nc1ccc(S(=O)(=O)O)cc1 [Example 42, hydrochloride]
> 100 µM

Give recorded GI50. Cl.N=C(NC(=N)N1CCCCC1)Nc1ccc(F)c(OC(F)(F)F)c1 [Example 50, hydrochloride]
3.9 µM

Give recorded GI50. Cl.N=C(NC(=N)N1CCC1)Nc1ccc(C(F)(F)F)cc1 [Example 25, hydrochloride]
27.6 µM

Give recorded GI50. Cl.N=C(NC(=N)N1CCCC1)Nc1ccc(C(F)(F)F)c(F)c1 [Example 48, hydrochloride]
9.3 µM

Give recorded GI50. Cl.N=C(NC(=N)N1CCCCC1)Nc1ccc(F)c(F)c1 [Example 59, hydrochloride]
28.1 µM
